Tested on: SK-MEL-28 melanoma
assay.name: NCI-60 one-dose screen, 48 h (100 = growth as untreated, 0 = no growth, -100 = all killed)
measurement.context: 10 µM unless noted
The panel holds about 83,000 compounds, 20% with a hit somewhere; the sample as a whole holds those more often.
quantity.name: growth (%)
Answers are plain numbers, in %.

Answered examples (3):
compound	quantity.name	readout.units	meas.value
CC(=O)NC(CCc1ccc(Cl)c(Cl)c1)c1cccc(O)c(=O)c1 (configuration not stated)	growth	%	19.5
CCCCCC(=O)OCCC1CCCCC1	growth	%	105
OCC1OC(n2ccc3c2ncn2ncnc32)C(O)C1O (configuration not stated)	growth	%	92.5

// for each compound in input: emit growth
1. Cc1[nH]c(=S)[nH]c(=O)c1C
2. Nc1cc(N)ncn1
3. Nc1ccn(C2OC(CO)C(O)C2F)c(=O)n1 (configuration not stated)
4. CCOC(=O)CNC(=O)Sc1ccc(C(C)(C)C)cc1

1. 110
2. 98.9
3. 60.5
4. 113

----------
System: NCI-H460 lung
assay.name: NCI-60 one-dose screen, 48 h (100 = growth as untreated, 0 = no growth, -100 = all killed)
measurement.context: 10 µM unless noted
The panel holds about 83,000 compounds, 20% with a hit somewhere; the sample as a whole holds those more often. Active and inactive are the calls of the source. Rule for the calls: active = growth percent below 10; inactive = the rest.
quantity.name: growth

smiles.data	study.system	growth
O=C(NCc1ccco1)Nc1cccc2c(NC(=O)NCc3ccco3)cccc12	NCI-H460 lung	111% [100 µM] (inactive)
Cc1ccc(S(=O)(=O)CCCl)cc1	NCI-H460 lung	105% (inactive)
CCN(CC)CCOC(=O)Nc1c(C(C)C)cccc1C(C)C	NCI-H460 lung	128% (inactive)
Cc1cc(CC(=O)NCCO)n(CCO)c(=O)c1	NCI-H460 lung	103% (inactive)
Cc1ccc(C)c(CCO)c1	NCI-H460 lung	105% (inactive)

// for each compound in input: emit growth
1. CC(C)(N)CO[C@H]1C[C@H]2CC[C@@]1(C)C2(C)C
2. CN(CCCN(C)CCC1CCCCC1)CCC1CCCCC1

97.8% (inactive)
29% (inactive)

----------
System: MDA-MB-435 melanoma
assay.name: NCI-60 one-dose screen, 48 h (100 = growth as untreated, 0 = no growth, -100 = all killed)
measurement.context: 10 µM unless noted
Description: Growth inhibition of the MDA-MB-435 human Melanoma tumor cell line is measured as a screen for anti-cancer activity. Cells are grown in 96 well plates and exposed to the test compound for 48 hours. Compounds are tested at a single concentration, which is 10^-5 M for most compounds. The reported endpoint is percent growth (GI% or GIPRCNT), where numbers from 0 - 100% represent growth inhibition, and numbers from -100% - 0 represent cell death. […]
About 83,000 compounds went through this panel and 20% of them were active in at least one assay; those are over-represented in the sample as a whole.
Could you please report measured growth for the items listed next?
Numbers only, in %.

// for each compound in input: emit growth
1. CCCCCC/C=C\CCCCCCCCCc1cc(O)cc(OC)c1O
2. COc1cc(C(=O)NC(=S)NCc2ccncc2)cc(OC)c1OC
3. CCCC1OC(c2ccco2)OCC1CC (configuration not stated)
4. CCOC(=O)c1cc(C)[nH]c(=O)c1C#N
5. NCCCN1CCCC1=O

13.3
104
108
86
124

// for each compound in input: emit growth
1. CN(C)c1ccc2c(N(C)C)cc(N(C)C)nc2c1
2. COc1ccc2c(ccc[n+]2C)c1

1. 80.2
2. 110

----------
System: DU-145 prostate
assay.name: NCI-60 one-dose screen, 48 h (100 = growth as untreated, 0 = no growth, -100 = all killed)
measurement.context: 10 µM unless noted
About 83,000 compounds went through this panel and 20% of them were active in at least one assay; those are over-represented in the sample as a whole.
Could you please report measured growth for the items listed next?
Answers are plain numbers, in %.

Answered examples (8):
compound	meas.value
O=C(O)CSCC(=O)Nc1cc(C(F)(F)F)ccc1Cl	128
O=Cc1ccc(Cl)c(Cl)c1	94.8
C#CCSc1nnnn1-c1ccccc1	79.1
O=C(OCC1CCCO1)c1ccc([N+](=O)[O-])cc1 (stereo unspecified)	113
COc1cccc(C(=O)NNC(=O)c2cccc3ccccc23)c1	117
O=c1cc(C(F)(F)F)[nH]c(=S)[nH]1	109
CC(=O)NC(CCC(=O)c1ccccc1)C(=O)O (stereo unspecified)	107
Cc1ccc(C)c(CCO)c1	93

// for each compound in input: emit growth
1. CSc1nc2[nH]ncc2c(=O)[nH]1
2. Cc1cc(NC(=O)c2ccccc2)c(Cl)cc1N
3. O=S(=O)(c1ccc(NC(=S)NCc2cccnc2)cc1)N1CCCCC1
4. O=C1C=CC(=O)C2=C1CCCC2

1. 104
2. 126
3. 46.9
4. 101

// for each compound in input: emit growth
1. Cc1ccc2nc(-c3ccc(N=Cc4ccccc4O)cc3)sc2c1
2. C=CCN1CCCC1=O
3. Cc1ccc(/C=N/NC(N)=S)s1
4. Cc1ccc2[nH]c3ccccc3c2c1
5. Cc1ccc[n+](CCC(N)=O)c1
6. CCOC(=O)N[C@H]1CCc2cc(OC)c(OC)c(OC)c2-c2ccc(SC)c(=O)cc21
7. C=C1C(=O)C2CCC1C2 (stereo unspecified)

1: 96.8; 2: 114; 3: 110; 4: 104; 5: 103; 6: 0.871; 7: 98.4

// for each compound in input: emit growth
1. O=C(N/N=C\c1ccc(Cl)cc1Cl)c1ccncc1
2. CCOC(=O)C(=O)CC(=O)c1ccccc1
3. COC(=O)c1cccc([N+](=O)[O-])c1
4. C/C(=N\Nc1ccc([N+](=O)[O-])cc1[N+](=O)[O-])c1ccc(Br)cc1

1: 111; 2: 102; 3: 105; 4: 103

----------
System: RPMI-8226 leukemia
assay.name: NCI-60 one-dose screen, 48 h (100 = growth as untreated, 0 = no growth, -100 = all killed)
measurement.context: 10 µM unless noted
About 83,000 compounds went through this panel and 20% of them were active in at least one assay; those are over-represented in the sample as a whole.
quantity.name: growth (%)
Give bare numbers, in %.

Answered examples (3):
compound	study.system	growth (%)
O=C(c1ccc(Cl)cc1)N1CCCCC1	RPMI-8226 leukemia	102
CNc1ccccc1C(N)=O	RPMI-8226 leukemia	110
CS(=O)(=O)c1ccc(/C=C\C(=O)O)cc1	RPMI-8226 leukemia	98.8

// for each compound in input: emit growth
1. COc1cc2c(c(OC)c1OC)-c1ccc(SC)c(=O)cc1[C@@H](NC1OC(CO)C(O)C(O)C1O)CC2 (some centres undefined)
2. CC1CCC(C)(C)c2ccccc21 (centres undefined)
3. CC1(C)OC(=O)CC1=O

1. 19.7
2. 117
3. 93.4

// for each compound in input: emit growth
1. S=C=Nc1ccc2ccccc2c1
2. c1ccc(Oc2c3ccccc3nc3ccccc23)cc1
3. Cn1c(=O)[nH]c2ccccc2c1=O
4. N#CCCN1C(=O)CCC1C(=O)O (centres undefined)
5. NNc1ncnc2c1ncn2C1OC(CO)C(O)C1O (centres undefined)
6. O=c1cc(C(F)(F)F)[nH]c(=S)[nH]1
7. CSc1cnc2ccccc2n1

103
-20.9
112
95.2
51.8
111
109

I would be grateful if you could share the reported growth for CCOC(=O)C(=O)CC(=O)c1ccccc1 . 98.4

----------
System: T-47D breast
assay.name: NCI-60 one-dose screen, 48 h (100 = growth as untreated, 0 = no growth, -100 = all killed)
measurement.context: 10 µM unless noted
About 83,000 compounds went through this panel and 20% of them were active in at least one assay; those are over-represented in the sample as a whole.
Could you please report measured growth for the items listed next?
Give bare numbers, in %.

Answered examples (6):
compound	study.system	meas.value
Nc1ncnc(Nc2ccccc2)n1	T-47D breast	96.3
CC1(C)OC(=O)CC1=O	T-47D breast	82
NCC(O)C(O)C(O)C(O)CO (stereo not given)	T-47D breast	84.1
c1ccc(-c2ccc3ccccc3c2)cc1	T-47D breast	81.4
OC(CCN1CCCCC1)(c1ccccc1)c1ccccc1	T-47D breast	103
CC(=O)/C(C)=N\OC(=O)Nc1ccccc1	T-47D breast	94.4

// for each compound in input: emit growth
1. S=C=Nc1ccc2ccccc2c1
2. CC1CCC(C(C)(C)[N+](C)(C)C)CC1 (stereo not given)
3. COC(=O)c1ccc([N+](=O)[O-])c(C)c1
4. O=C(NC1CCCCC1)c1ccc(Cl)cc1

108
98.8
102
85.1

----------
Test system: SNB-75 CNS
assay.name: NCI-60 one-dose screen, 48 h
measurement.context: 10 µM unless noted
Compounds without any hit were thinned out: in the full panel of roughly 83,000, 20% have a hit. Active and inactive are the calls of the source. How the source made its calls: active means growth percent below 10; inactive means the rest.
Classes to choose from: YES = active, NO = inactive

Could you check what this test reported for O=C(CCl)Nc1ccccc1SCc1cc(Cl)cc2c1OCOC2 ? NO

Could you check what this test reported for CCOC(=O)C(C#N)=C1CCN(C)CC1 ? NO

Could you check what this test reported for Cc1cccc2ccccc12 ? NO

Could you check what this test reported for CCCCOC(=O)c1ccccc1O ? NO

Could you check what this test reported for CC1(C)CCC(C)(C)NC(=S)N1 ? NO

Could you check what this test reported for Cc1ccc(S(=O)(=O)Oc2ccc3sc4c(CO)ccc(NCCN(C)C)c4c(=O)c3c2)cc1 ? YES

Could you check what this test reported for CC12CCC3c4ccc(O)cc4CCC3C1CCC2=O (stereo not drawn) ? NO

Could you check what this test reported for COC1=C(OC)C(=O)C(SC/C=C(\C)CCCC(C)CCCC(C)CCCC(C)C)=CC1=O (stereo not drawn) ? NO
